Quick reference for ED50 among some molecules
molecular target: 5-HT1A receptor (Rattus norvegicus, UniProt P19327); test: 5-HT syndrome (serotoninergic syndrome) in the male rat; type: in vivo, male rat (Sprague-Dawley); set-up: carried out with the male rat (Sprague-Dawley); from tissue; host or cells: whole living rat (Sprague-Dawley); conditions: FPT, po, read-out: ED50 FPT (reciprocal fore-paw treading)
Sequence (P19327 whole entry): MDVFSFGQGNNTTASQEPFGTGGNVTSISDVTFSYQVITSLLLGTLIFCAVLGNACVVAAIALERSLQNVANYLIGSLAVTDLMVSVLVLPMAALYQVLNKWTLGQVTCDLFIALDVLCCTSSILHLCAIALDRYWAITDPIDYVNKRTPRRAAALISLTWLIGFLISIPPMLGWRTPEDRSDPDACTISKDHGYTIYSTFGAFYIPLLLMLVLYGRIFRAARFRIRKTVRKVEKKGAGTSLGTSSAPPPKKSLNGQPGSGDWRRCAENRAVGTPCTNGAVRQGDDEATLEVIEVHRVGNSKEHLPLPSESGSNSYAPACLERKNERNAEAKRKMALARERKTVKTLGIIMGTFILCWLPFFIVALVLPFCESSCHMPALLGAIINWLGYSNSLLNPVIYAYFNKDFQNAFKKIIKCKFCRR
Write the answer as a number in mg/kg, unit excluded.

Answered cases to consult:
O=C(NCCN1CCN(c2cccc3c2OC[C@H](CO)O3)CC1)c1ccc(F)cc1 [Flesinoxan, reference compound] :: 5
Cn1ncc(O[C@H]2CC[C@H](N3CCN(c4ncccn4)CC3)CC2)nc1=O [Compound 9] :: 0.31
Cc1cc(C)nc(N2CCN([C@H]3CC[C@H](n4ncc(=O)n(C)c4=O)CC3)CC2)n1 [Compound 5] :: 0.08

Let's switch to this molecule now.
Inquiry: Please look up its ED50: Cn1ncc(O[C@H]2CC[C@H](N3CCN(c4nccc(Cl)n4)CC3)CC2)nc1=O [Compound 12]
Reply text: 0.08

====

Target: 5-HT1A receptor (Rattus norvegicus, UniProt P19327)
Assay: 5-HT syndrome (serotoninergic syndrome) in the male rat
Format: in vivo, male rat (Sprague-Dawley)
Set-up: carried out with the male rat (Sprague-Dawley); from tissue; host or cells: whole living rat (Sprague-Dawley)
Conditions: FPT, po, read-out: ED50 FPT (reciprocal fore-paw treading)
Method: The central activity of the compounds of the invention was evaluated by their ability to provoke the 5-HT syndrome, which is characterized by: an alternating bending and stretching of the forepaws (reciprocal fore-paw treading: FPT) the retraction of the lower lip (lower lip retraction: LLR) a position or the ventral surface of the animal is in contact with the ground and the hind paws extended (flat body posture: FBP). […]
measurement_type: ED50

O=C1CC2(CCCC2)CC(=O)N1CCCCN1CCN(c2ncccn2)CC1 [Buspirone, reference compound] :: > 40 mg/kg
Cn1ncc(O[C@H]2CC[C@H](NCC3COc4ccccc4O3)CC2)nc1=O (relative stereo) [Compound 16] :: > 2.5 mg/kg

Let's switch to this molecule now.
Inquiry: Please look up its ED50: Cn1ncc(O[C@H]2CC[C@H](N3CCN(c4ncc(F)cn4)CC3)CC2)nc1=O [Compound 15]
Reply text: > 2.5 mg/kg
